biological target: TRPV4 (mTRPV4) (Mus musculus, UniProt Q9EPK8, D682A); assay: patch-clamp inhibition of GSK101-activated mutant channel
Sequence (Q9EPK8 whole entry D682A): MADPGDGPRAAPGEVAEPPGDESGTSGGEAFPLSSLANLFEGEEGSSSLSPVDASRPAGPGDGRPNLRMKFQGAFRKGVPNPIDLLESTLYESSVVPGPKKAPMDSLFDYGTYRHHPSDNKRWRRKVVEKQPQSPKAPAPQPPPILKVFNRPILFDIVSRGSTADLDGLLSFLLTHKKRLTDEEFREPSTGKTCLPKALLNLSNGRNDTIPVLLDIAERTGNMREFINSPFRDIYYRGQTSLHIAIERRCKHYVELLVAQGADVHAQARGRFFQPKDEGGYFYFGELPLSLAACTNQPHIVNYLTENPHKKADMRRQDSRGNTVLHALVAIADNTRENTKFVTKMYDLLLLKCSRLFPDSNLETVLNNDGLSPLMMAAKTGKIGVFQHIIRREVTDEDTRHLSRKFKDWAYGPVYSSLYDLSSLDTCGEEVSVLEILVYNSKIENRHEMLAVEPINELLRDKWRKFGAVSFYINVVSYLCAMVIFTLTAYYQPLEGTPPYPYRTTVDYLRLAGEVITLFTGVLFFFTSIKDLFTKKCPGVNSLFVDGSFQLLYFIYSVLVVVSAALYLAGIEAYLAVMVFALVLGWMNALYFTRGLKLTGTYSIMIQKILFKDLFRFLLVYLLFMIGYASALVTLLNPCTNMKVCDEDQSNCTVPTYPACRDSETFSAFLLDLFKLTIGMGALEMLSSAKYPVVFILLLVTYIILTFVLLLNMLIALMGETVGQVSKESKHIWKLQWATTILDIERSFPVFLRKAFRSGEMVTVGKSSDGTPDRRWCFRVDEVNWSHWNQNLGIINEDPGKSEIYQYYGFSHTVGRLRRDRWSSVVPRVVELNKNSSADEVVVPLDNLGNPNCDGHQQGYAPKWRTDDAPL
endpoint name: pIC50
Answers are plain numbers, as −log10 of the molar value.

Request the reported pIC50 associated with Cl.Cl.Cl.Cl.Cl.Cl.N.N.N.N.N.N.N.N.N.N.N.N.N.N.[O-2].[O-2].[Ru+3].[Ru+3].[Ru+4] 4.81
